- assayTarget: Amylin 3(a) receptor (human calcitonin receptor (CTa) with RAMP-3) on BHK570 cells (human, UniProt P30988 25-474)
- Sequence (P30988 25-474): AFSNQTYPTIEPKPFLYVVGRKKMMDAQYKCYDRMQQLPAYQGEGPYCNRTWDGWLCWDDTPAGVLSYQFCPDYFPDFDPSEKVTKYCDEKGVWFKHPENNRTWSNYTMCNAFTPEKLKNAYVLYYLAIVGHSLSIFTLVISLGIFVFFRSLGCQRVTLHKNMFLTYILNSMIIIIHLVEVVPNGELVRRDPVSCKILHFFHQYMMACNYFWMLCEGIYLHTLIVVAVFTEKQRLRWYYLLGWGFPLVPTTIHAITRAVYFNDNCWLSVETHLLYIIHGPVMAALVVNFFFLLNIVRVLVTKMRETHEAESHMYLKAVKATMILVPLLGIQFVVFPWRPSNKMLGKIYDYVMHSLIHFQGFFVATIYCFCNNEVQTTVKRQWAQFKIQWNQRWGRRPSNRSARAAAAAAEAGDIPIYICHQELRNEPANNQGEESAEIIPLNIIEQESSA
- method: cell-based or functional assay
Starred links: 1 amine or outer side, 2 acyl side, 3 side chain; linkers in the order of their positions; H or OH if unused. Positions of bridges follow the written chain, without caps; N, C: chain ends. Groups on a side chain read outwards from the residue. No end group written: not given here. *: point of attachment. C20 diacid = O=C(O)CCCCCCCCCCCCCCCCCCC(=O)*; C18 diacid = O=C(O)CCCCCCCCCCCCCCCCC(=O)*; γGlu = O=C(O)[C@H](CCC(=O)[*:2])N[*:1]; AEEA = NCCOCCOCC(=O)O
# key: entry, value: Potency luciferase assay
Please answer in the form of a number followed by its unit of measurement.

The binder listed as {C20 diacid-γGlu}-RCNTATCATQRLANFLVHSSNNFGPILPPTNVGSNTY-NH2 (disulfide 2-7 (inferred)) [N-alpha-[(S)-4-carboxy-4-(19-carboxynonadecanoylamino)butyryl]-[Arg1]-pramlintide (1-37)] shows Potency luciferase assay equal to 40 pM

Potency luciferase assay measured on K([γGlu-C18 diacid])CGTATCATQRLANFLARSSNNFGPILSPTNVGSNTY-NH2 (disulfide 2-7 (inferred)) = 70 pM

Given item KCK([AEEA-AEEA-γGlu-C18 diacid])TATCATQRLANFLVPSSNNFGPILPPTNVGSNTY-NH2 (disulfide 2-7 (inferred)) , the value recorded as its Potency luciferase assay is 10000 pM
